Measured sfGFP reporter fluorescence values are reported for all entries that follow.
B1: library; numbered along this chain (parent)
chain: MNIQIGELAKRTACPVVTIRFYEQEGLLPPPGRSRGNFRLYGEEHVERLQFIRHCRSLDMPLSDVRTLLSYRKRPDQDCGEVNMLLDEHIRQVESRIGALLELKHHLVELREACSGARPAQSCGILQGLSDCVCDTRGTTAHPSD

- Variants of: B1
- ASSAY_DETAILS: sfGFP reporter fluorescence (15 h) (µM FITC); higher = higher leak
- CONDITION_SUMMARY: library round: Round 0; ligand: none
Please reply with the number alone, leaving off any unit.

- ORDERED_RESIDUES: "MNIQIGELAKRTACPVVTIRFYEQEGLLPPPGRSRGNFRLYGEEHTERLQFIRHCRSLDMPLSDVRTLLSYRKRPDQDCGEVNMLLDEHIRQVESRIGALLELKHHLVELREACSGARPAQSCGILQGLSDCVCDTRGTTAHPSD [V46T]"
  sfGFP reporter fluorescence: 0.057
- ORDERED_RESIDUES: "MNIQIGELAKRTACPVVTIRFYEQEGLLPPPGRSRGNFRLYGEEHVERLQFIRHCRSLDMPLSDVRTLLSYRKRPDQDCGEVNMLLDEHIRQVESRIGALLELKHHLVELREACSGARPAQSCGILQGLSDCVCDTRGTTAHPSA [D145A]"
  sfGFP reporter fluorescence: 0.0599
- ORDERED_RESIDUES: "MNIQIGELAKRTACPVVTIRFYEQEGLLPPPGRSRGNFRLYGEEHVERLQFIRHCRSLDMPLSDVRTLLSYRKRPDQDCGEVNMLLDEHIRQAESRIGALLELKHHLVELREACSGARPAQSCGILQGLSDCVCDTRGTTAHPSD [V93A]"
  sfGFP reporter fluorescence: 0.0585
- ORDERED_RESIDUES: "MNIQIGELAKRTACPVVTIRFYEQEGLLPPPGRSRGNFRLYGEEHVERLQFIRHCRSLDMPLSGVRTLLSYRKRPDQDCGEVNMLLDEHIRQVESRIGALLELKHHLVELREACSGARPAQSCGILQGLSDCVCDTRGTTAHPSD [D64G]"
  sfGFP reporter fluorescence: 0.0632
- ORDERED_RESIDUES: "MNIQIGELAKRTACPVVTIRFYEQEGELPPPGRSRGNFRLYGEEHVERLQFIRHCRSLDMPLSDVRTLLSYRKRPDQDCGEVNMLLDEHIRQVESRIGALLELKHHLVELREACSGARPAQSCGILQGLSDCVCDTRGTTAHPSD [L27E]"
  sfGFP reporter fluorescence: 0.0603
- ORDERED_RESIDUES: "MNIQIGELAKRTACPVVTIRFYEQEGLLPPPGRSRGNFRLYGEEHEERLQFIRHCRSLDMPLSDVRTLLSYRKRPDQDCGEVNMLLDEHIRQVESRIGALLELKHHLVELREACSGARPAQSCGILQGLSDCVCDTRGTTAHPSD [V46E]"
  sfGFP reporter fluorescence: 0.0579
- ORDERED_RESIDUES: "MNRQIGELAKRTACPVVTIRFYEQEGLLPPPGRSRGNFRLYGEEHVERLQFIRHCRSLDMPLSDVRTLLSYRKRPDQDCGEVNMLLDEHIRQVESRIGALLELKHHLVELREACSGARPAQSCGILQGLSDCVCDTRGTTAHPSD [I3R]"
  sfGFP reporter fluorescence: 0.0605
- ORDERED_RESIDUES: "MNIQIGELAKRTACPVVTIRFYEQEGLLPPPGRSRGNFRLYGEEHVERLQFIRHCRSLDMPLSDVRTLLSYRKRPDQDCGEVNMLLDEHIRQVESRIGALLELKHHKVELREACSGARPAQSCGILQGLSDCVCDTRGTTAHPSD [L107K]"
  sfGFP reporter fluorescence: 0.0561

MNIQIGELAKRTACAVVTIRFYEQEGLLPPPGRSRGNFRLYGEEHVERLQFIRHCRSLDMPLSDVRTLLSYRKRPDQDCGEVNMLLDEHIRQVESRIGALLELKHHLVELREACSGARPAQSCGILQGLSDCVCDTRGTTAHPSD [P15A] has a reported sfGFP reporter fluorescence of 0.0674

Record summary for MNIQIGELAKRTACPVVTIRFYEQEGLLPPPGRSRGNFRLYGEEHVERLQFIRHCRSLDMPLSDVRTLLSYRKRPDQDCGEVNMLLDEHIRQVESRIGALLELKHHLVELREAYSGARPAQSCGILQGLSDCVCDTRGTTAHPSD [C114Y] : reported sfGFP reporter fluorescence = 0.0585

# sfGFP reporter fluorescence of MNIQIGELAKRTACPVVTIRFYEQEGLLPPPGRSRGNFRLYGEEHVERLQFIRHCRSLDMPLSDVRTVLSYRKRPDQDCGEVNMLLDEHIRQVESRIGALLELKHHLVELREACSGARPAQSCGILQGLSDCVCDTRGTTAHPSD [L68V] = 0.0603

Quick note, sfGFP reporter fluorescence for MNIQIGELAKRTACPVVTIRFYEQEGLLPPPGRSRGNFRLYGEEHVERLQFIRHCRSLDMPLADVRTLLSYRKRPDQDCGEVNMLLDEHIRQVESRIGALLELKHHLVELREACSGARPAQSCGILQGLSDCVCDTRGTTAHPSD [S63A] landed at 0.0607

Measured sfGFP reporter fluorescence of MNIQIGELAKRTACPVVTIRFYEQEGLLPPPGRSRVNFRLYGEEHVERLQFIRHCRSLDMPLSDVRTLLSYRKRPDQDCGEVNMLLDEHIRQVESRIGALLELKHHLVELREACSGARPAQSCGILQGLSDCVCDTRGTTAHPSD [G36V] : 0.0601

For MNIQIGELAKRTACPVVTIRFYEQEGLLPPPGRSRGNFRLYGEEHVERLQFIRHCRSLDMPLSDVRTLLSYRKRPDQDCGEVNMLLDEWIRQVESRIGALLELKHHLVELREACSGARPAQSCGILQGLSDCVCDTRGTTAHPSD [H89W] the variant record lists sfGFP reporter fluorescence as 0.0607

Looking up MNIQIGELAKRTACPVVTIRFYEQEGLLPPPGRSRGNFRLYGEEHVERLQFIRHCRSLDMPLSDVRTLLSYRKRPDQDCGEVNMLLDEHIRQVESRMGALLELKHHLVELREACSGARPAQSCGILQGLSDCVCDTRGTTAHPSD [I97M] , I see its sfGFP reporter fluorescence listed as 0.0574

Memo: MNIQIGELAKRTACPVVTIRFYEQEGLLPPPGRSRGNFRLLGEEHVERLQFIRHCRSLDMPLSDVRTLLSYRKRPDQDCGEVNMLLDEHIRQVESRIGALLELKHHLVELREACSGARPAQSCGILQGLSDCVCDTRGTTAHPSD [Y41L] , reported sfGFP reporter fluorescence: 0.0597

The measured sfGFP reporter fluorescence associated with MNIQIGELAKRTACPVVTIRFYEQEGLLPPPGRSRGNFRLYGEEHVERLQFIRHCRSLDMPLSDVRTLLSYRKRPDQDCGEVNMLLDEHIRQVESRIGALLELKHHLNELREACSGARPAQSCGILQGLSDCVCDTRGTTAHPSD [V108N] reads 0.0574
